- assay_notes: Selectivity index, ratio of IC50 for human HaCaT cells to MIC for Escherichia coli ATCC 10538
- Type: toxicity
- run_conditions: read-out: Selectivity Index
measurement_name: selectivity ratio

INSERT INTO results (smi, reported_value) VALUES
  ('Cc1ccc(-n2nnnc2NCc2ccco2)cc1Cl', 11.4),
  ('O=[N+]([O-])c1ccc(-n2nnnc2Nn2cnnc2)cc1', 0.55),
  ('Fc1ccc(-n2nnnc2Nn2cnnc2)cc1Cl', 1.08),
  ('Fc1ccc(-n2nnnc2Nn2cnnc2)cc1', 1.47),
  ('FC(F)(F)c1ccc(-n2nnnc2Nc2nccs2)cc1', 0.19),
  ('Fc1ccc(-n2nnnc2Nc2nccs2)cc1Cl', 0.07),
  ('Brc1ccc(-n2nnnc2Nn2cnnc2)cc1', 1.25),
  ('Fc1ccc(-n2nnnc2NCc2ccco2)cc1Cl', 12);
